target: TAR RNA; test: In vitro binding of resin-bound compounds to TAR RNA (OD260 of unbound RNA); set-up: species or system HIV; details: in vitro assay; compounds of formula I on TentaGel beads incubated with TAR RNA overnight at 4° C. in TK buffer; read-out: Kd (nM), binding constants
Test Readout: Kd (nM)

Some entries whose results are on file:
// molecule N=C(N)NCCC[C@H](N)COC(=O)N(CCCCN)CC(=O)N[C@H](CCCCN)COC(N)=O [Compound AZ] , assay TAR RNA, Kd value: 147

// molecule N=C(N)NCCC[C@H](N)COC(=O)N[C@H](CCCCN)COC(=O)N[C@H](CCCCN)COC(N)=O [Compound AH] , assay TAR RNA, Kd value: 460

// molecule NCCCCCNCC(=O)N(CCCCCN)CC(=O)N[C@H](CCCCN)COC(N)=O [Compound BF] , assay TAR RNA, Kd value: 147

[I] NCCCCNCC(=O)N[C@@H](CCCCN)C(=O)N[C@H](CCCCN)COC(N)=O [Compound BZ]
[II] NCCCCNCC(=O)N[C@@H](CCCCN)COC(=O)N[C@H](CCCCN)COC(N)=O [Compound AP]
[III] NCCCCNCC(=O)N[C@H](CCCCN)COC(=O)N[C@@H](CCCCN)COC(N)=O [Compound CG]
[IV] NCCCCCNCC(=O)N(CCCCN)CC(=O)N[C@@H](CCCCN)COC(N)=O [Compound CW]
Prompt: Which order do these items take when sorted by rising Kd? List them. Please list the labels in the order you were asked to rank them.
Response: I, III, II, IV

###

Molecular target: TAR RNA
Experiment: In vitro binding of resin-bound compounds to TAR RNA (OD260 of unbound RNA)
Design: species or system HIV
Conditions: in vitro assay; compounds of formula I on TentaGel beads incubated with TAR RNA overnight at 4° C. in TK buffer; read-out: Kd (nM), binding constants
Protocol: Binding of compounds of formula I and V to TAR RNA was measured by evaluating their inhibition of TAR-TAT complex formation in the presence of increasing levels of the compound to be tested. […] In vitro assay conditions: Compounds AA-DU were synthesized on TentaGel S—NH2 (4.6 mmole). […] Coupling efficiencies of residues at each step were monitored by Kaiser test. […] The UV absorbance was measured by a Shimadzu UV-1601 spectrometer. Equilibrium concentrations of RNA were determined from these measurements. […]
Test Readout: Kd (nM)

Some entries whose results are on file:
Looking up NCCCCCCCN(CC(=O)N[C@@H](CCCCN)COC(N)=O)C(=O)OC[C@H](N)CCC(N)=O , I found its Kd recorded as 3150

Looking up NCCCC[C@H](COC(N)=O)NC(=O)[C@H](CCCCN)NC(=O)[C@H](N)CCCCN , I found its Kd recorded as 678

Looking up NCCCCCCCNCC(=O)N(CCCCN)CC(=O)N[C@H](CCCCN)COC(N)=O , I found its Kd recorded as 165

Looking up NCCCCCN(CC(=O)N[C@H](CCCCN)COC(N)=O)C(=O)CNCCCCN , I found its Kd recorded as 2530

[a] NCCCCCN(CC(=O)N[C@@H](CCCCN)COC(N)=O)C(=O)[C@@H](N)CCCCN
[b] NCCCC[C@@H](N)COC(=O)N[C@@H](CCCCN)COC(=O)N[C@H](CCCCN)COC(N)=O
[c] NCCCCCNCC(=O)N[C@H](CCCCN)COC(=O)N[C@@H](CCCCN)COC(N)=O
[d] NCCCCCCCN(CC(=O)N[C@H](CCCCN)COC(N)=O)C(=O)OC[C@@H](N)CCCCN
[e] NCCCC[C@H](N)COC(=O)N[C@@H](CCCCN)COC(=O)N[C@H](CCCCN)COC(N)=O
Prompt: // sort entries: Kd, high to low Please list the labels in the order you were asked to rank them.
Response: e, b, d, a, c

[A] NCCCCCCCN(CC(=O)N[C@H](CCCCN)COC(N)=O)C(=O)OC[C@H](N)CCC(N)=O
[B] NCCCCCN(CC(=O)N[C@H](CCCCN)COC(N)=O)C(=O)[C@@H](N)CCCCN
[C] NCCCC[C@H](N)COC(=O)N[C@@H](CCCCN)COC(=O)N[C@@H](CCCCN)COC(N)=O (stereo in doubt)
Prompt: // sort entries: Kd, high to low Please list the labels in the order you were asked to rank them.
Response: C, A, B

###

target: TAR RNA; experiment: In vitro binding of resin-bound compounds to TAR RNA (OD260 of unbound RNA); parameters: species or system HIV; details: in vitro assay; compounds of formula I on TentaGel beads incubated with TAR RNA overnight at 4° C. in TK buffer; read-out: Kd (nM), binding constants
Test Readout: Kd (nM)

Some entries whose results are on file:
Looking up NCCCCCN(CC(=O)N[C@H](CCCCN)COC(N)=O)C(=O)[C@H](N)CCCCN [Compound BE] , I found its Kd recorded as 678

Looking up NCCCC[C@H](N)COC(=O)N[C@@H](CCCCN)C(=O)N[C@H](CCCCN)COC(N)=O (stereo in doubt) [Compound BT] , I found its Kd recorded as 202

Looking up NCCCC[C@H](COC(N)=O)NC(=O)OC[C@@H](CCCCN)NC(=O)[C@@H](N)CCCCN [Compound AC] , I found its Kd recorded as 215

[1] NCCCCCN(CC(=O)N[C@H](CCCCN)COC(N)=O)C(=O)OC[C@H](N)CCC(N)=O [Compound BJ]
[2] NCCCC[C@@H](COC(N)=O)NC(=O)OC[C@@H](CCCCN)NC(=O)[C@@H](N)CCCCN [Compound CC]
[3] N=C(N)NCCC[C@H](N)COC(=O)N[C@@H](CCCCN)COC(=O)N[C@@H](CCCCN)COC(N)=O [Compound CQ]
[4] NCCCC[C@@H](N)COC(=O)N[C@@H](CCCCN)COC(=O)N[C@@H](CCCCN)COC(N)=O [Compound CK]
Prompt: Which order do these items take when sorted by rising Kd? List them. Please list the labels in the order you were asked to rank them.
Response: 1, 2, 4, 3
(1: 202 nM, 2: 567 nM, 4: 1110 nM, 3: 2350 nM)

###

biological target: TAR RNA; test: In vitro binding of resin-bound compounds to TAR RNA (OD260 of unbound RNA); design: species or system HIV; conditions: in vitro assay; compounds of formula I on TentaGel beads incubated with TAR RNA overnight at 4° C. in TK buffer; read-out: Kd (nM), binding constants
Test Readout: Kd (nM)

// compound NCCCCCN(CC(=O)N[C@@H](CCCCN)COC(N)=O)C(=O)OC[C@@H](N)CCCCN [Compound DB] , assay TAR RNA, Kd value: 256

// compound NCCCCNCC(=O)N[C@H](CCCCN)COC(=O)N[C@H](CCCCN)COC(N)=O [Compound AG] , assay TAR RNA, Kd value: 403

// compound N=C(N)NCCC[C@H](N)COC(=O)N[C@@H](CCCCN)C(=O)N[C@H](CCCCN)COC(N)=O [Compound DT] , assay TAR RNA, Kd value: 215

// compound NCCCC[C@H](COC(N)=O)NC(=O)OC[C@@H](CCCCN)NC(=O)OC[C@H](N)CCC(N)=O [Compound AI] , assay TAR RNA, Kd value: 603

[A] NCCCCCCCN(CC(=O)N[C@H](CCCCN)COC(N)=O)C(=O)OC[C@H](N)CCCCN [Compound BL]
[B] NCCCCCCCNCC(=O)N(CCCCCN)CC(=O)N[C@@H](CCCCN)COC(N)=O [Compound DG]
[C] N=C(N)NCCC[C@H](N)COC(=O)N(CCCCCCCN)CC(=O)N[C@@H](CCCCN)COC(N)=O [Compound DR]
Prompt: // sort entries: Kd, high to low Please list the labels in the order you were asked to rank them.
Response: A, C, B
(A: 718 nM, C: 460 nM, B: 235 nM)

[1] NCCCC[C@H](COC(N)=O)NC(=O)[C@H](CCCCN)NC(=O)OC[C@H](N)CCC(N)=O [Compound DU]
[2] NCCCCCN(CC(=O)N[C@@H](CCCCN)COC(N)=O)C(=O)OC[C@H](N)CCCCN [Compound DC]
Prompt: I'm curious whether 1 or 2 has the smaller Kd number. Which is it? Selection: enter the item's label.
Response: 1
(1: 639 nM, 2: 5110 nM)

[1] NCCCC[C@@H](COC(N)=O)NC(=O)CN(CCCCN)C(=O)[C@@H](N)CCCCN [Compound CU]
[2] NCCCCCCCNCC(=O)N[C@H](CCCCN)COC(=O)N[C@H](CCCCN)COC(N)=O [Compound AF]
Prompt: Short answer wanted: higher Kd, 1 or 2 ? Selection: enter the item's label.
Response: 1

[A] NCCCCCCCN(CC(=O)N[C@@H](CCCCN)COC(N)=O)C(=O)[C@H](N)CCCCN [Compound DN]
[B] NCCCCCN(CC(=O)N[C@H](CCCCN)COC(N)=O)C(=O)OC[C@@H](N)CCCCN [Compound BB]
Prompt: I'm curious whether A or B has the smaller Kd number. Which is it? Selection: enter the item's label.
Response: B

[1] N=C(N)NCCC[C@H](N)COC(=O)N[C@H](CCCCN)COC(=O)N[C@@H](CCCCN)COC(N)=O [Compound CH]
[2] NCCCC[C@@H](COC(N)=O)NC(=O)OC[C@H](CCCCN)NC(=O)[C@@H](N)CCCCN (stereo in doubt) [Compound CL]
Prompt: Short answer wanted: higher Kd, 1 or 2 ? Selection: enter the item's label.
Response: 1
(1: 865 nM, 2: 130 nM)

[A] NCCCC[C@@H](COC(N)=O)NC(=O)OC[C@@H](CCCCN)NC(=O)[C@H](N)CCCCN (stereo in doubt) [Compound CD]
[B] N=C(N)NCCC[C@H](N)COC(=O)N[C@@H](CCCCN)COC(=O)N[C@H](CCCCN)COC(N)=O [Compound AQ]
[C] NCCCCCCCN(CC(=O)N[C@H](CCCCN)COC(N)=O)C(=O)[C@H](N)CCCCN [Compound BN]
[D] NCCCC[C@H](COC(N)=O)NC(=O)CN(CCCCN)C(=O)[C@H](N)CCCCN [Compound AV]
Prompt: Which order do these items take when sorted by rising Kd? List them. Please list the labels in the order you were asked to rank them.
Response: D, A, B, C
(D: 325 nM, A: 567 nM, B: 2080 nM, C: 3150 nM)
